- Test system: Staphylococcus aureus ATCC 6538
- Measurement description: Compatibility with prototype vehicle, serial dilution test (MIC)
- Assay type: cell-based
- Conditions used: added vehicle 62.5 μg/ml; Id expressed as free base, IVa-IVc expressed as cation; 16-18 h, 37° C
Entries and their Minimum Inhibitory Concentration (MIC)
Property label: Minimum Inhibitory Concentration (MIC) (µg/mL)

>>> measurement("CCCCCCCN=c1ccn(CCCCCCCCCCCCn2ccc(=NCCCCCCC)cc2)cc1")
0.39
>>> measurement("CCCCCCCNC(=N)NC(=N)NCCCCCCNC(=N)NC(=N)NCCCCCCC")
0.25
>>> measurement("CCCCCCCCN=c1ccn(CCCCCCCCCCn2ccc(=NCCCCCCCC)cc2)cc1")
0.5
>>> measurement("CCCCCCCCCCCCCC[N+](C)(C)Cc1ccccc1 [Compound of Formula IIa, benzalkonium chloride, reference compound]")
0.5
>>> measurement("CCCCC(CC)CN=c1ccn(CCCCCCCCCCCCn2ccc(=NCC(CC)CCCC)cc2)cc1 (centres unmarked)")
0.25

----------
- System: Staphylococcus aureus ATCC 6538
- Measurement description: Compatibility with prototype vehicle, serial dilution test (MIC)
- Type: cell-based
- Conditions used: added vehicle 15.6 μg/ml; Id expressed as free base, IVa-IVc expressed as cation; 16-18 h, 37° C
Property label: Minimum Inhibitory Concentration (MIC) (µg/mL)

>>> measurement("CCCCCCCNC(=N)NC(=N)NCCCCCCNC(=N)NC(=N)NCCCCCCC")
0.25
>>> measurement("CCCCCCCCCCCCCC[N+](C)(C)Cc1ccccc1 [Compound of Formula IIa, benzalkonium chloride, reference compound]")
0.5
>>> measurement("CCCCCCCN=c1ccn(CCCCCCCCCCCCn2ccc(=NCCCCCCC)cc2)cc1")
0.195
>>> measurement("CCCCC(CC)CN=c1ccn(CCCCCCCCCCCCn2ccc(=NCC(CC)CCCC)cc2)cc1 (centres unmarked)")
0.25
>>> measurement("CCCCCCCCN=c1ccn(CCCCCCCCCCn2ccc(=NCCCCCCCC)cc2)cc1")
0.5

----------
Entries and their Minimum Inhibitory Concentration (MIC)
- Test system: Staphylococcus aureus ATCC 6538
- Measurement description: Compatibility with prototype vehicle, serial dilution test (MIC)
- Assay type: cell-based
- Conditions used: added vehicle 250.0 μg/ml; Id expressed as free base, IVa-IVc expressed as cation; 16-18 h, 37° C
Property label: Minimum Inhibitory Concentration (MIC) (µg/mL)

>>> measurement("CCCCCCCCCCCCCC[N+](C)(C)Cc1ccccc1 [Compound of Formula IIa, benzalkonium chloride, reference compound]")
0.5
>>> measurement("CCCCCCCNC(=N)NC(=N)NCCCCCCNC(=N)NC(=N)NCCCCCCC [Compound of Formula Id]")
0.25
>>> measurement("CCCCCCCCN=c1ccn(CCCCCCCCCCn2ccc(=NCCCCCCCC)cc2)cc1 [Compound of Formula IVb]")
0.25
>>> measurement("CCCCCCCN=c1ccn(CCCCCCCCCCCCn2ccc(=NCCCCCCC)cc2)cc1 [Compound of Formula IVa]")
0.10
>>> measurement("CCCCC(CC)CN=c1ccn(CCCCCCCCCCCCn2ccc(=NCC(CC)CCCC)cc2)cc1 (centres unmarked) [Compound of Formula IVc]")
0.0625

Where do these numbers come from? They come from patent US4420484A.
